Cited source: patent EP4786492A1

target: DLL3 endogenously expressed on NCI-H82 cells (UniProt Q9NYJ7); experiment: FACS on NCI-H82 cells; antibody 4 nM
Sequence (Q9NYJ7 27-618): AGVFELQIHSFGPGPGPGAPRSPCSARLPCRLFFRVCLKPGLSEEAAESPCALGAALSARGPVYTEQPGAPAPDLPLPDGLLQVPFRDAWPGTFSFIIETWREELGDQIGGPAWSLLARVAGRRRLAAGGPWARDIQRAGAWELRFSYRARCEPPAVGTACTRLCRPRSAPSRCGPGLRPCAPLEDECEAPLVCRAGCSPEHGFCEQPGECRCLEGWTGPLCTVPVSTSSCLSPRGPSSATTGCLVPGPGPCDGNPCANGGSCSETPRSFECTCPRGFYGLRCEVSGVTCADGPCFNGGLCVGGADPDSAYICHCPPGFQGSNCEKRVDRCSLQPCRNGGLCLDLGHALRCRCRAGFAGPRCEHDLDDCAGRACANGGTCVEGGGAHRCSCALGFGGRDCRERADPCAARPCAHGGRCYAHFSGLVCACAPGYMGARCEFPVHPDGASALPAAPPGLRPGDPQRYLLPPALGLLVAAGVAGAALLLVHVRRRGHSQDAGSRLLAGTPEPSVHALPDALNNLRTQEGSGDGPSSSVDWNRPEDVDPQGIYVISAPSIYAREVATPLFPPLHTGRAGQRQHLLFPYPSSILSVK
result type: MFI
Quick one: just the number, no unit, thanks!

Hab015VL5VH1a-hFc (scFv, part only; not given: scFv linker and human IgG1 Fc, V domains shown, not shown: another chain or arm of the molecule; a dimerising Fc or GST; small tags and cut ends) VL: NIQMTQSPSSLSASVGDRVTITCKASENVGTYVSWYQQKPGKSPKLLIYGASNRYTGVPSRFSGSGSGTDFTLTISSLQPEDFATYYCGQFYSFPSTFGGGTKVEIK VH: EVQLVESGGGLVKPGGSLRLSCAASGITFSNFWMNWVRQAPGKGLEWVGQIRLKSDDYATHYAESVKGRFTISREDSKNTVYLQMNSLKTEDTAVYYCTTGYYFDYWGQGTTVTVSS    867
Hab015VL4VH6a-hFc (scFv, part only; not given: scFv linker and human IgG1 Fc, V domains shown, not shown: another chain or arm of the molecule; a dimerising Fc or GST; small tags and cut ends) VL: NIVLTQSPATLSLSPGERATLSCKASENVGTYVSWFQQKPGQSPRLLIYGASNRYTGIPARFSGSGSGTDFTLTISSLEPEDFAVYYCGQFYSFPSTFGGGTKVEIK VH: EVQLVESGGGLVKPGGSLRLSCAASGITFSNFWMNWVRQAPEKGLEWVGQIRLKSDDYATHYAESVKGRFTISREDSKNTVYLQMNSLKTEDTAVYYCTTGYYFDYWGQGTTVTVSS    1050
Hab015VL4VH1b-hFc (scFv, part only; not given: VL-VH linker and human IgG1 Fc, V domains shown, not shown: another chain or arm of the molecule; a dimerising Fc or GST; small tags and cut ends) VL: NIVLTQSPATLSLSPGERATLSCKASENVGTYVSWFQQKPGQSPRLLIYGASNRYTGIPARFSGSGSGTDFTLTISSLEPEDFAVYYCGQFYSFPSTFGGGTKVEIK VH: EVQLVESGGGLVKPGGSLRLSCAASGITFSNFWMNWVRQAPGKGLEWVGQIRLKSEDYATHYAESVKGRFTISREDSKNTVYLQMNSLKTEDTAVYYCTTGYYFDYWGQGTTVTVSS    1020
BI3 (antibody, human IgG1, kappa, V domains shown) VH: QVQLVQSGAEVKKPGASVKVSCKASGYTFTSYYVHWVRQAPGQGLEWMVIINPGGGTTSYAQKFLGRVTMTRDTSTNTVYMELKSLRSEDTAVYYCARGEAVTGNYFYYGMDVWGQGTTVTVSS VL: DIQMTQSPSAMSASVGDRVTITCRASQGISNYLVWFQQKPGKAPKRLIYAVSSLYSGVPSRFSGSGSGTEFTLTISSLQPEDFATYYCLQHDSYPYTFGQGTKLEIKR    795
Hab014VL3VH1-hFc (scFv, part only; not given: VL-VH linker and human IgG1 Fc, V domains shown, not shown: another chain or arm of the molecule; a dimerising Fc or GST; small tags and cut ends) VL: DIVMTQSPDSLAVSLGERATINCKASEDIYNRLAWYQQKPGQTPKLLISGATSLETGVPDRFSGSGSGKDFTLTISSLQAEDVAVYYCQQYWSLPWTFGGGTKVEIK VH: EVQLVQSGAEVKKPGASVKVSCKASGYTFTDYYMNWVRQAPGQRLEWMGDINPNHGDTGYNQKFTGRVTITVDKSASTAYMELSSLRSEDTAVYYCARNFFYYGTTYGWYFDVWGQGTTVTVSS    596

Query :: Annotate the binder Hab009VL3aVH1-hFc (scFv, part only; not given: VL-VH linker and human IgG1 Fc, V domains shown, not shown: another chain or arm of the molecule; a dimerising Fc or GST; small tags and cut ends) VL: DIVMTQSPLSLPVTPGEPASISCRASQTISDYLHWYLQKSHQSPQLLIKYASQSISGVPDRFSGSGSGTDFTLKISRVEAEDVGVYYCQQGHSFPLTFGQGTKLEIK VH: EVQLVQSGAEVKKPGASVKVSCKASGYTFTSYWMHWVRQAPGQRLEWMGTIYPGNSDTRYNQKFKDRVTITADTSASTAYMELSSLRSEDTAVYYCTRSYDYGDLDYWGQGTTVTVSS with its measured MFI.
Result :: 738
